measure: melting point (°C)
Quick note: give the figure in °C, leave out the unit.

Fill in: melting point of N#Cc1cccc(-c2cnc(C(=O)O)[nH]2)c1 is ___
165

Another compound: O=C(O)c1ccc(-c2ccc([N+](=O)[O-])cc2)s1
189

Now consider O=C(O)c1ncc(-c2ccc([N+](=O)[O-])cc2)[nH]1 and answer again.
137

Another compound: N#Cc1cccc(-c2ccc(C(=O)O)s2)c1
207

Same lookup for O=C(O)c1cn(-c2ccc([N+](=O)[O-])cc2)nn1 , please.
175

====

targetUnderTest: Recombinant M. tuberculosis MbtI (Mycobacterium tuberculosis)
Construct: made in house
Sequence (P9WFX1 whole entry): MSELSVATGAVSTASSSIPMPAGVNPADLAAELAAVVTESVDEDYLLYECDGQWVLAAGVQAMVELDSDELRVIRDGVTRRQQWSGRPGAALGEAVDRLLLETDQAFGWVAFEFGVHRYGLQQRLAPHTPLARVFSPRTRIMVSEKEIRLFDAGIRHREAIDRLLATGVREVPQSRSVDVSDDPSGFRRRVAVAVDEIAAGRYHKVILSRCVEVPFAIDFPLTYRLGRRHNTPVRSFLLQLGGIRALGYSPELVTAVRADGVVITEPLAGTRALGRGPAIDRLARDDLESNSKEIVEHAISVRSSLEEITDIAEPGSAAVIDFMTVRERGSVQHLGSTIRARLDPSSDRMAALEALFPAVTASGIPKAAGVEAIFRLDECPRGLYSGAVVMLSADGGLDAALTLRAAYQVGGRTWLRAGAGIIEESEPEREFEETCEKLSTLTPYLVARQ
experimentDescription: MbtI enzymatic inhibition assay (fluorimetric, salicylic acid formation)
Type: biochemical
conditionSet: discussion of Table 1

[
  {
    "structureSmiles": "N#Cc1cccc(-c2cnc(C(=O)O)[nH]2)c1",
    "activity against MbtI (in words)": "weak activity"
  },
  {
    "structureSmiles": "N#Cc1cccc(-c2cnc(C(=O)[O-])s2)c1.[Na+]",
    "activity against MbtI (in words)": "weaker inhibitors"
  },
  {
    "structureSmiles": "O=C(O)c1ncc(-c2ccc([N+](=O)[O-])cc2)[nH]1",
    "activity against MbtI (in words)": "weak activity"
  },
  {
    "structureSmiles": "O=C([O-])c1ncc(-c2ccc([N+](=O)[O-])cc2)s1.[Na+]",
    "activity against MbtI (in words)": "weaker inhibitors"
  }
]
